# Test system: RIVA
# assay_info: growth inhibition by drug alone (1 - RLU/untreated control) (fraction); higher = stronger inhibition
# condition: 100 nM; time (day): 5; 177Lu-lilotomab satetraxetan 0 ug/ml
Counter-ions that a name gives are not always drawn.
Let's look at some compounds and their measured growth inhibition by drug alone.
recorded_endpoint: growth inhibition by drug alone

| compound | result_value |
| --- | --- |
| COc1cc2ncnc(Nc3cccc(Br)c3)c2cc1OC | -0.0794 |
| CC(C)C[C@@H](C(=O)N[C@H](C(=O)OC1CCCC1)c1ccccc1)[C@H](O)C(=O)NO | -0.221 |
| COc1cc2nccc(Oc3ccc(NC(=O)C4(C(=O)Nc5ccc(F)cc5)CC4)cc3)c2cc1OC [XL-184 free base (Cabozantinib)] | -0.104 |
| Cc1cnc(Nc2ccc(OCCN3CCCC3)cc2)nc1Nc1cccc(S(=O)(=O)NC(C)(C)C)c1 | -0.41 |
| CCCS(=O)(=O)Nc1ccc(F)c(C(=O)c2c[nH]c3ncc(-c4ccc(Cl)cc4)cc23)c1F | -0.219 |
| O=C(/C=C/C#Cc1cccc(NS(=O)(=O)c2ccccc2)c1)NO | 0.435 |
| Nc1ccn([C@@H]2O[C@H](CO)[C@@H](O)[C@@H]2O)c(=O)n1 | 0.0792 |
| CCCCCOC(=O)Nc1nc(=O)n([C@@H]2O[C@H](C)[C@@H](O)[C@H]2O)cc1F | -0.367 |
| CNCc1ccc(-c2[nH]c3cc(F)cc4c3c2CCNC4=O)cc1 | -0.0791 |
| O=C(Nc1cccc(Cl)c1)Nc1ncc(CCNc2ncnc3ccsc23)s1 | 0.135 |
| CC(C)CC(=O)Nc1n[nH]c2c1CN(C(=O)C1CCN(C)CC1)C2(C)C | 0.355 |
| COc1cc2ncnc(Nc3ccc(Oc4ccccc4)cc3)c2cc1OC | -0.0229 |
| C[C@@H](Oc1cc(-c2cnn(C3CCNCC3)c2)cnc1N)c1c(Cl)ccc(F)c1Cl | -0.28 |
| Nc1ccc(-c2ccc3ncc4ccc(=O)n(-c5cccc(C(F)(F)F)c5)c4c3c2)cn1 | 0.808 |
| Cn1nnc2c(C(N)=O)ncn2c1=O [Temozolomide] | 0.0367 |
| Nc1ncn([C@@H]2O[C@H](CO)[C@@H](O)[C@H]2O)c(=O)n1 | -0.3 |
| Cc1ccc(NC(=O)c2ccc(CN3CC[C@H](N(C)C)C3)c(C(F)(F)F)c2)cc1Nc1nccc(-c2cncnc2)n1 | -0.225 |
| Cc1ccc(C(=O)N(CCCN)[C@@H](c2nc3cc(Cl)ccc3c(=O)n2Cc2ccccc2)C(C)C)cc1 | 0.939 |
| NC(=O)c1ccc(-c2nc(-c3ccccn3)c(-c3ccc4c(c3)OCO4)[nH]2)cc1 | -0.195 |
| NC(=O)c1ccc2nc(-c3ccc(Oc4ccc(Cl)cc4)cc3)[nH]c2c1 | -0.133 |
| COc1cccc2c1C(=O)c1c(O)c3c(c(O)c1C2=O)C[C@@](O)(C(=O)CO)C[C@@H]3O[C@H]1C[C@H](N)[C@H](O)[C@H](C)O1 | 0.872 |
| O=C(O[C@@H]1Cc2c(O)cc(O)cc2O[C@@H]1c1cc(O)c(O)c(O)c1)c1cc(O)c(O)c(O)c1 [(-)-Epigallocatechin gallate] | -0.44 |
| Nc1nc(Cl)nc2c1ncn2[C@H]1C[C@H](O)[C@@H](CO)O1 | 0.319 |
| O=c1[nH]cc(F)c(=O)[nH]1 | -0.493 |
| CCOc1cc2ncc(C#N)c(Nc3ccc(F)c(Cl)c3)c2cc1NC(=O)/C=C/CN(C)C [Pelitinib (EKB-569)] | -0.627 |
| CC(C)C[C@H](NC(=O)CNC(=O)c1cc(Cl)ccc1Cl)B1OC(=O)C(CC(=O)O)(CC(=O)O)O1 | 0.359 |
| CCOc1ccc(Cc2cc([C@@H]3O[C@H](CO)[C@@H](O)[C@H](O)[C@H]3O)ccc2Cl)cc1 | -0.0994 |
| COC(=O)C1=C(C)NC(C)=C(C(=O)OCCCN2CCC(c3ccccc3)(c3ccccc3)CC2)[C@H]1c1cccc([N+](=O)[O-])c1 [S-(+)-Niguldipine hydrochloride] | -0.288 |
| Cn1cncc1[C@@](N)(c1ccc(Cl)cc1)c1ccc2c(c1)c(-c1cccc(Cl)c1)cc(=O)n2C [Tipifarnib (Zarnestra)] | -0.267 |
| O=C1CN2Cc3c(ccc(Cl)c3Cl)N=C2N1 [Anagrelide] | 0.0156 |
| CS(=O)(=O)c1ccc(C(=O)Nc2ccc(Cl)c(-c3ccccn3)c2)c(Cl)c1 | -0.186 |
| COc1cc2ncnc(-n3nc(-c4ccccn4)nc3N)c2cc1OC | -0.074 |
| Cc1oc(S(=O)(=O)N2CCCCC2)cc1NC(=O)Nc1ccccc1 | 0.052 |
